# Test system: 648629-189-R-J1-PDC complex spheroids viability;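 note: drug exposure lasted seven days before viability readout; 100% = DMSO vehicle control wells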
# experiment description: Anticancer human tumor 648629-189-R-J1-PDC patient-derived bladder carcinoma cell line growth inhibition [CLK]
# condition summary: second compound 10 µM; first compound 10 µM; hits give low values
Provide the reported viability, T/C of each item.
Write it as a number; the unit % goes unstated.

Request: State the recorded viability, T/C for this entry: O=c1[nH]cc(F)c(=O)[nH]1 + CN1CCN(c2cc(C(=O)Nc3cc4cc(-c5cnn(C)c5)ccc4cn3)ccn2)CC1
Response: 1.3

Request: One more compound: CC(CO)NC(=O)c1cc(-c2ccc(Cl)cc2)nn(-c2cnn(C)c2)c1=O (stereo not given) + CNC(=O)c1ccc(Nc2nc(OC3CCCC3)c3c(-c4ccc5nc(C)oc5c4)c[nH]c3n2)c(OC)c1
Response: 19.3

Request: One more compound: CC(=O)O[C@H]1C(=O)[C@@]2(C)[C@H]([C@H](OC(=O)c3ccccc3)[C@]3(O)C[C@H](OC(=O)[C@H](O)[C@@H](NC(=O)c4ccccc4)c4ccccc4)C(C)=C1C3(C)C)[C@]1(OC(C)=O)CO[C@@H]1C[C@@H]2O + CN1CCN(c2cc(C(=O)Nc3cc4cc(-c5cnn(C)c5)ccc4cn3)ccn2)CC1
Response: 0.16

Request: One more compound: C#Cc1c(F)ccc2cc(O)cc(-c3ncc4c(N5CC6CCC(C5)N6)nc(OCC56CCCN5CC(F)C6)nc4c3F)c12 (stereo not given) + CN1CCN(c2cc(C(=O)Nc3cc4cc(-c5cnn(C)c5)ccc4cn3)ccn2)CC1
Response: 0.16

Request: One more compound: Nc1ccccc1NC(=O)c1ccc(CNC(=O)OCc2cccnc2)cc1 + CN1CCN(c2cc(C(=O)Nc3cc4cc(-c5cnn(C)c5)ccc4cn3)ccn2)CC1
Response: 0.17
